Cited source for all entries: patent US12570667B2

# System: Wild-type mouse fibroblast cell line (WTMEFs)
# TEST DETAILS: In-vitro toxicity, MTT assay
# Type: cell-based
# STATED CONDITIONS: 24 h treatment, read-out: Cytotoxicity IC50
MEASURED QUANTITY: IC50 (µM)

| COMPOUND | EXPERIMENTAL VALUE |
| --- | --- |
| CO[C@@H]1C[C@@H](C[C@H]2CC[C@H](C)[C@H]([C@@H](C)C(=O)O)O2)O[C@]2(O[C@](C)([C@H]3CC[C@@](C)([C@@H]4O[C@@H]([C@H]5O[C@@](O)(CO)[C@H](C)C[C@@H]5C)C[C@@H]4C)O3)C[C@H]2C)[C@@H]1C [Nigericin, reference compound] | 9.22 |

---

# TEST DETAILS: In-vitro toxicity, MTT assay
# Type: cell-based, mouse
# STATED CONDITIONS: mouse, wild-type mouse embryonic fibroblast cells (WTMEFs), 2 h treatment, unit mM, read-out: Cytotoxicity IC50
MEASURED QUANTITY: IC50 at 2 h

| COMPOUND | EXPERIMENTAL VALUE |
| --- | --- |
| COC1C[C@@H](C[C@H]2CC[C@H](C)C([C@@H](C)C(=O)Nc3ccc(F)cc3)O2)O[C@]2(O[C@](C)(C3CC[C@@](C)(C4OC(C5O[C@@](O)(CO)[C@H](C)C[C@@H]5C)C[C@@H]4C)O3)C[C@H]2C)C1C (stereo partly drawn) | > 0.1 mM |
| CO[C@@H]1C[C@@H](C[C@H]2CC[C@H](C)[C@H]([C@@H](C)C(=O)O)O2)O[C@]2(O[C@](C)([C@H]3CC[C@@](C)([C@@H]4O[C@@H]([C@H]5O[C@@](O)(CO)[C@H](C)C[C@@H]5C)C[C@@H]4C)O3)C[C@H]2C)[C@@H]1C [Nigericin, reference compound] | ~0.01 mM |
| COC1C[C@@H](C[C@H]2CC[C@H](C)C([C@@H](C)C(=O)Nc3ccccc3F)O2)O[C@]2(O[C@](C)(C3CC[C@@](C)(C4OC(C5O[C@@](O)(CO)[C@H](C)C[C@@H]5C)C[C@@H]4C)O3)C[C@H]2C)C1C (stereo partly drawn) | > 0.1 mM |

---

# TEST DETAILS: In-vitro toxicity, MTT assay
# Format: cell-based, mouse
# STATED CONDITIONS: mouse, wild-type mouse embryonic fibroblast cells (WTMEFs), 24 h treatment, unit mM, read-out: Cytotoxicity IC50
Listed next: entries and their corresponding IC50 at 24 h.

| COMPOUND | IC50 at 24 h (mM) |
| --- | --- |
| COC1C[C@@H](C[C@H]2CC[C@H](C)C([C@@H](C)C(=O)Nc3ccc(F)cc3)O2)O[C@]2(O[C@](C)(C3CC[C@@](C)(C4OC(C5O[C@@](O)(CO)[C@H](C)C[C@@H]5C)C[C@@H]4C)O3)C[C@H]2C)C1C (stereo partly drawn) | 0.0598 |
| COC1C[C@@H](C[C@H]2CC[C@H](C)C([C@@H](C)C(=O)Nc3ccccc3F)O2)O[C@]2(O[C@](C)(C3CC[C@@](C)(C4OC(C5O[C@@](O)(CO)[C@H](C)C[C@@H]5C)C[C@@H]4C)O3)C[C@H]2C)C1C (stereo partly drawn) | 0.0669 |

---

# Test system: E. coli
# TEST DETAILS: Antibacterial activity by spread plate-disc diffusion method
# Type: cell-based
# STATED CONDITIONS: 20 μl from 1 mg/ml stock per disc, 37° C., 24 h, "0" indicates no antibacterial activity
MEASURED QUANTITY: Antibacterial activity by disc diffusion method (Zone measured in mm)

| MOLECULE | READING UNIT | EXPERIMENTAL VALUE |
| --- | --- | --- |
| COc1ccc(OC(=O)[C@H](C)C2O[C@@H](C[C@@H]3CC(OC)C(C)[C@]4(O3)O[C@](C)(C3CC[C@@](C)(C5OC(C6O[C@@](O)(CO)[C@H](C)C[C@@H]6C)C[C@@H]5C)O3)C[C@H]4C)CC[C@@H]2C)cc1 (some centres unmarked) | mm | 0 |
| COC1C[C@@H](C[C@H]2CC[C@H](C)C([C@@H](C)C(=O)Oc3ccccc3)O2)O[C@]2(O[C@](C)(C3CC[C@@](C)(C4OC(C5O[C@@](O)(CO)[C@H](C)C[C@@H]5C)C[C@@H]4C)O3)C[C@H]2C)C1C (some centres unmarked) | mm | 0 |
| COC1C[C@@H](C[C@H]2CC[C@H](C)C([C@@H](C)C(=O)Nc3ccc(F)cc3)O2)O[C@]2(O[C@](C)(C3CC[C@@](C)(C4OC(C5O[C@@](O)(CO)[C@H](C)C[C@@H]5C)C[C@@H]4C)O3)C[C@H]2C)C1C (some centres unmarked) | mm | 30 |
| CO[C@@H]1C[C@@H](C[C@H]2CC[C@H](C)[C@H]([C@@H](C)C(=O)O)O2)O[C@]2(O[C@](C)([C@H]3CC[C@@](C)([C@@H]4O[C@@H]([C@H]5O[C@@](O)(CO)[C@H](C)C[C@@H]5C)C[C@@H]4C)O3)C[C@H]2C)[C@@H]1C [Nigericin, reference compound] | mm | 0 |
| COC1C[C@@H](C[C@H]2CC[C@H](C)C([C@@H](C)C(=O)Nc3ccccc3F)O2)O[C@]2(O[C@](C)(C3CC[C@@](C)(C4OC(C5O[C@@](O)(CO)[C@H](C)C[C@@H]5C)C[C@@H]4C)O3)C[C@H]2C)C1C (some centres unmarked) | mm | 33 |

---

# TEST DETAILS: In-vitro toxicity, MTT assay
# Assay type: cell-based, mouse
# STATED CONDITIONS: mouse, wild-type mouse embryonic fibroblast cells (WTMEFs), 2 h treatment, read-out: Cytotoxicity IC50

| COMPOUND | IC50 at 2 h |
| --- | --- |
| COC1C[C@@H](C[C@H]2CC[C@H](C)C([C@@H](C)C(=O)Nc3ccccc3F)O2)O[C@]2(O[C@](C)(C3CC[C@@](C)(C4OC(C5O[C@@](O)(CO)[C@H](C)C[C@@H]5C)C[C@@H]4C)O3)C[C@H]2C)C1C (stereo partly drawn) [Analog N-3] | > 100 µM |
| COC1C[C@@H](C[C@H]2CC[C@H](C)C([C@@H](C)C(=O)Nc3ccc(F)cc3)O2)O[C@]2(O[C@](C)(C3CC[C@@](C)(C4OC(C5O[C@@](O)(CO)[C@H](C)C[C@@H]5C)C[C@@H]4C)O3)C[C@H]2C)C1C (stereo partly drawn) [Analog N-5] | > 100 µM |
| CO[C@@H]1C[C@@H](C[C@H]2CC[C@H](C)[C@H]([C@@H](C)C(=O)O)O2)O[C@]2(O[C@](C)([C@H]3CC[C@@](C)([C@@H]4O[C@@H]([C@H]5O[C@@](O)(CO)[C@H](C)C[C@@H]5C)C[C@@H]4C)O3)C[C@H]2C)[C@@H]1C [Nigericin, reference compound] | ~10 µM |

---

# TEST DETAILS: In-vitro toxicity, MTT assay
# Format: cell-based, mouse
# STATED CONDITIONS: mouse, wild-type mouse embryonic fibroblast cells (WTMEFs), 24 h treatment, read-out: Cytotoxicity IC50
MEASURED QUANTITY: IC50 at 24 h (µM)

| MOLECULE | MEASURED QUANTITY | READING UNIT | EXPERIMENTAL VALUE |
| --- | --- | --- | --- |
| COC1C[C@@H](C[C@H]2CC[C@H](C)C([C@@H](C)C(=O)Nc3ccc(F)cc3)O2)O[C@]2(O[C@](C)(C3CC[C@@](C)(C4OC(C5O[C@@](O)(CO)[C@H](C)C[C@@H]5C)C[C@@H]4C)O3)C[C@H]2C)C1C (stereo partly drawn) | IC50 at 24 h | µM | 59.8 |
| COC1C[C@@H](C[C@H]2CC[C@H](C)C([C@@H](C)C(=O)Nc3ccccc3F)O2)O[C@]2(O[C@](C)(C3CC[C@@](C)(C4OC(C5O[C@@](O)(CO)[C@H](C)C[C@@H]5C)C[C@@H]4C)O3)C[C@H]2C)C1C (stereo partly drawn) | IC50 at 24 h | µM | 66.9 |
